Answer each item with its documented pIC50.
Biological target: UniProtKB P41145
Sequence (P41145 whole entry): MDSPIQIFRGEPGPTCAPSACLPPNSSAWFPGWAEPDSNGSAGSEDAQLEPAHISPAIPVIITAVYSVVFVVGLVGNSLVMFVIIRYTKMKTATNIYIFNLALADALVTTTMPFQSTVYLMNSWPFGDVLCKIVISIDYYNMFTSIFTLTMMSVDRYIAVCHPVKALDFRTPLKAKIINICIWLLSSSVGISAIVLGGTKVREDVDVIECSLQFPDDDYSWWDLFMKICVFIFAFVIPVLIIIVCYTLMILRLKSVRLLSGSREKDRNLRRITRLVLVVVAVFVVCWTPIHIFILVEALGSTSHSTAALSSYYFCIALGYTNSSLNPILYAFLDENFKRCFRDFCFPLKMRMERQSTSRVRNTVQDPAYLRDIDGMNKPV
Test: Forskolin-induced cAMP accumulation assay, KOR antagonist mode
pIC50: −log10 of the molar value.

In: Entry C[C@H]1[C@H]2Cc3ccc(O)cc3[C@]1(C)CCN2CCC1CCN(C)CC1 [Compound 28] has what pIC50?
Out: < 5.00

In: Item: CC1c2ccc(O)cc2[C@@]2(C)CCN(CCc3ccccc3)[C@@H]1[C@H]2C (single isomer, unassigned; (+)) [(+)-39]
Out: < 5.00

In: Please answer likewise for C[C@H]1[C@H]2Cc3ccc(O)cc3[C@]1(C)CCN2CCc1c[nH]c2ccccc12 [Compound 26]
Out: < 5.00
